Each entry below carries its recorded Ki.
# experimental system: human tryptase
# assay explanation: Inhibition of human tryptase (apparent dissociation constant, tos-Gly-Pro-Arg-pNA cleavage)
# condition set: in the presence of substrate; heparin 0.1–50 μg/ml; equilibrium conditions; read-out: Kiapp (apparent dissociation constant of tryptase-inhibitor complex)
Structures can show the parent of a compound that is named as a salt.

Sample answers from the record:
// lookup Ki for NCc1ccc(CNC(=O)OCC#Cc2cc(C#CCOC(=O)NCc3ccc(CN)cc3)cc(CO)c2)cc1 [Compound 1, dihydrochloride] 14 nM

Next: NCc1cccc(CNC(=O)OCC#Cc2cc(C#CCOC(=O)NCc3cccc(CN)c3)cc(C(=O)O)c2)c1 [Compound 3, dihydrochloride] 40 nM

***
// lookup Ki for COC(=O)c1cc(C#CCOC(=O)NCc2ccc(CN)cc2)cc(C#CCOC(=O)NCc2ccc(CN)cc2)c1 [Compound 4, dihydrochloride] 58 nM

----------
# experimental system: human tryptase
# assay explanation: Inhibition of human tryptase (apparent dissociation constant, tos-Gly-Pro-Arg-pNA cleavage)
# condition set: in the presence of substrate; heparin 0.1–50 μg/ml; equilibrium conditions; read-out: Kiapp (apparent dissociation constant of tryptase-inhibitor complex)
# Excerpt: The documented pathophysiological effects of mast cell tryptase are caused directly by the enzymatic activity of the protease. Accordingly, they are reduced or blocked by inhibitors which inhibit the enzymatic activity of the tryptase. […] This Ki value can be determined via the effect of the inhibitor on the tryptase-induced cleavage of a chromogenic peptide-p-nitroanilide substrate or a fluorogenic peptide-aminomethylcoumarin substrate. […]
Structures can show the parent of a compound that is named as a salt.
assay metric: Ki (nM)
Return type: number; implicit unit nM.

Sample answers from the record:
Identify the measured Ki of COC(=O)c1cc(C#CCOC(=O)NCc2cccc(CN)c2)c(C(=O)OC)cc1C#CCOC(=O)NCc1cccc(CN)c1 [Compound 8, dihydrochloride] for human tryptase. 2.3

Next: COC(=O)c1cc(C#CCOC(=O)NCc2cccc(CN)c2)ccc1C#CCOC(=O)NCc1cccc(CN)c1 [Compound 6, dihydrochloride] 0.3

***
Identify the measured Ki of NCc1ccc(CNC(=O)OCC#Cc2cc(C#CCOC(=O)NCc3ccc(CN)cc3)cc(C(=O)O)c2)cc1 [Compound 5, dihydrochloride] for human tryptase. 250

Next: COC(=O)c1cc(C#CCOC(=O)NCc2cccc(CN)c2)cc(C#CCOC(=O)NCc2cccc(CN)c2)c1 [Compound 2, dihydrochloride] 1.6

Next: NCc1cccc(CNC(=O)OCC#Cc2ccc(C#CCOC(=O)NCc3cccc(CN)c3)c(C(=O)O)c2)c1 [Compound 7, dihydrochloride] 8.6

Next: CCOC(=O)c1cc(OCC#CCOC(=O)NCc2cccc(CN)c2)c(C(=O)OCC)cc1OCC#CCOC(=O)NCc1cccc(CN)c1 [Compound 9, dihydrochloride] 6
